Give measured pIC50 for each item. Keep answers brief.
Molecular target: PTP1B (recombinant human GST-PTP1B) (Homo sapiens)
Sequence (P18031 whole entry): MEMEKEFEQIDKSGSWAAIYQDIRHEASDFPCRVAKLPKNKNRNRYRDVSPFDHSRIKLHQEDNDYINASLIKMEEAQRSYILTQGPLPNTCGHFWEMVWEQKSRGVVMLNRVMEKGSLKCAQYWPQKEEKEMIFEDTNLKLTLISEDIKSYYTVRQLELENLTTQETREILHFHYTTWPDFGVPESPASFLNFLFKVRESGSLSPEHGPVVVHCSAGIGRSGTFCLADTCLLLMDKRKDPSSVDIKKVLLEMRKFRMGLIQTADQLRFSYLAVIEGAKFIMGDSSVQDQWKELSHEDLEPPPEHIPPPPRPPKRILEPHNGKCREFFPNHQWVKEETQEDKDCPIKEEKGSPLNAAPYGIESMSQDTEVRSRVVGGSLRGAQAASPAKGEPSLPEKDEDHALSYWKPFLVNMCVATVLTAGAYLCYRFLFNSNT
Assay: pNPP hydrolysis, absorbance […] nm
Note on units: pIC50 is unitless, being -log10 of a concentration expressed in mol/L.

So what's the measured pIC50 for this one? COc1ccc(C(=O)NCc2ccc(C(=O)Nc3ccc(C(=O)Nc4ccccc4OC)cc3)cc2)cc1
5.32

So what's the measured pIC50 for this one? COc1ccc(C(=O)NCc2ccc(C(=O)Nc3ccc(NC(=O)c4ccccc4)cc3)cc2)cc1
5.21

So what's the measured pIC50 for this one? COc1ccc(CC(=O)Nc2ccc(NC(=O)c3ccc(CCC(=O)c4ccc(OC)cc4)cc3)cc2)cc1
5.38

So what's the measured pIC50 for this one? CN(C)c1ccc(C(=O)CCc2ccc(C(=O)Nc3ccc(C(=O)Nc4ccccc4)cc3)cc2)cc1
5.31

So what's the measured pIC50 for this one? COc1ccc(/C=C/C(=O)c2ccc(C(=O)Nc3ccc(C(=O)Nc4ccccc4)cc3)cc2)cc1
5.11

So what's the measured pIC50 for this one? COc1ccc(CC(=O)Nc2ccc(NC(=O)c3ccc(/C=C/C(=O)c4ccc(OC)cc4)cc3)cc2)cc1
5.23

So what's the measured pIC50 for this one? COc1ccc(C(=O)CCc2ccc(C(=O)Nc3cccc(C(=O)Nc4cc(OC)cc(OC)c4)c3)cc2)cc1
4.61

So what's the measured pIC50 for this one? COc1ccc(C(=O)NCc2ccc(C(=O)Nc3ccc(C(=O)Nc4ccc(N5CCOCC5)cc4)cc3)cc2)cc1
5.16

So what's the measured pIC50 for this one? COc1ccc(C(=O)CCc2ccc(C(=O)Nc3ccc(C(=O)Nc4ccc(N5CCOCC5)cc4)cc3)cc2)cc1
5.14

So what's the measured pIC50 for this one? O=C(/C=C/c1ccc(C(=O)Nc2ccc(C(=O)Nc3ccccc3)cc2)cc1)c1ccc(F)cc1
5.06

So what's the measured pIC50 for this one? COc1ccc(C(=O)NCc2ccc(C(=O)Nc3ccc(C(=O)Nc4ccccc4)cc3)cc2)cc1
5.09

So what's the measured pIC50 for this one? COc1ccc(/C=C/C(=O)c2ccc(C(=O)Nc3ccc(NC(=O)Cc4ccc(OC)cc4)cc3)cc2)cc1
5.33

So what's the measured pIC50 for this one? Cc1ccc(C(=O)/C=C/c2ccc(C(=O)Nc3ccc(C(=O)Nc4ccccc4)cc3)cc2)cc1
5.28
